Target: KRAS G12D (Homo sapiens (Human), UniProt P01116+P62937, G12D)
Sequence (P01116-2 other isoform, or with tags, fused parts or gaps G12D): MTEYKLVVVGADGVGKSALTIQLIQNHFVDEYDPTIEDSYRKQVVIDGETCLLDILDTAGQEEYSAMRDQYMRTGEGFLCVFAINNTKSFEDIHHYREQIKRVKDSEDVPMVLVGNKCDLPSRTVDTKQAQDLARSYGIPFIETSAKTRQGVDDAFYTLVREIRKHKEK
Sequence (P62937 whole entry): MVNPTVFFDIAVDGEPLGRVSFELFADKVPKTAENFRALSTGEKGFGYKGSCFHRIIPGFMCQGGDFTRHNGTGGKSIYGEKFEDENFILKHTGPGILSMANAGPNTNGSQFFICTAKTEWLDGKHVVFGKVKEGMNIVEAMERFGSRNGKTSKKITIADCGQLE
Assay: Ras-Raf (BRAF RBD) disruption / FRET / MOA assay, KRAS G12D
Type: biochemical
Conditions: Ras-Raf disruption/FRET/MOA assay; class symbols; read-out: KRAS G12D FRET data IC50
pIC50: −log10 of the molar value.
// reported pIC50 per item

MOLECULE	pIC50
CCn1c(-c2cccnc2[C@H](C)OC)c2c3cc(ccc31)-c1csc(n1)C[C@H](NC(=O)[C@H](C(C)C)N(C)C(=O)N1C[C@H]3CN(C(=O)C#CC(C)(C)N(C)C)CC[C@H]31)C(=O)N1CCC[C@H](N1)C(=O)OCC(C)(C)C2 (atropisomer, axis not shown)	5.00 to 6.00
CCn1c(-c2cccnc2[C@H](C)OC)c2c3cc(ccc31)-c1cccc(c1)C[C@H](NC(=O)[C@H](C(C)C)N(C)C(=O)[C@H]1CCN(C(=O)/C=C/CN(C)C)C1)C(=O)N1CCC[C@H](N1)C(=O)OCC(C)(C)C2 (atropisomer, axis not shown)	< 5.00
CCn1c(-c2cccnc2[C@H](C)OC)c2c3cc(ccc31)-c1csc(n1)C[C@H](NC(=O)[C@H](C(C)C)N1CC[C@]3(CCN(C(=O)C#CC(C)(C)N(C)C)C3)C1=O)C(=O)N1CCC[C@H](N1)C(=O)OCC(C)(C)C2 (atropisomer, axis not shown)	5.00 to 6.00
CCn1c(-c2cccnc2[C@H](C)OC)c2c3cc(ccc31)-c1csc(n1)C[C@H](NC(=O)[C@H](C(C)C)N(C)C(=O)N1CCN(C(=O)/C=C/CN3CCOCC3)C3(CC3)C1)C(=O)N1CCC[C@H](N1)C(=O)OCC(C)(C)C2 (atropisomer, axis not shown)	6.00 to 7.00
C=CC(=O)N1CCC(C(=O)N(C)[C@H](C(=O)N[C@H]2Cc3cc(O)cc(c3)-c3ccc4c(c3)c(c(-c3ccccc3CCOC)n4CC)CC(C)(C)c3coc(n3)[C@@H]3CCCN(N3)C2=O)C(C)C)C1 (single isomer, unassigned)	< 5.00
CCn1c(-c2cccnc2[C@H](C)OC)c2c3cc(ccc31)-c1cccc(c1)C[C@H](NC(=O)[C@@H](COC1CN(C(=O)C#CC(C)(C)N(C)C(C)C)C1)C(C)C)C(=O)N1CCC[C@H](N1)C(=O)OCC(C)(C)C2 (atropisomer, axis not shown)	< 5.00
C=CC(=O)N1CC[C@H](C(=O)N(C)[C@H](C(=O)N[C@H]2Cc3cc(O)cc(c3)-c3cc(F)c4c(c3)c(c(-c3ccccc3CCOC)n4CC)CC(C)(C)COC(=O)[C@@H]3CCCN(N3)C2=O)C(C)C)C1	< 5.00
C=CC(=O)N(C)CC(=O)N(C)[C@H](C(=O)N[C@H]1Cc2cc(O)cc(c2)-c2ccc3c(c2)c(c(-c2cccnc2COC)n3CC)CC(C)(C)COC(=O)[C@@H]2CCCN(N2)C1=O)C(C)C	5.00 to 6.00

All values here come from patent US11566007B2.
